# Tested on: U2OS
# test-details: Multiplex assay against U2OS
# Type: toxicity, cell-based
# run-parameters: human, 12 h, 1 µM, compound concentration 1 uM, replicate 2
measurement-label: Population Membrane Permeable-Phenotype (%)
Don't forget the unit after the value.

Worked examples, 3 compounds total:
{"entry-smiles": "S=C(NCCCc1c[nH]cn1)NCCCN(Cc1ccc(Cl)c(Cl)c1)c1ccc(Br)cn1", "experimental-result": "8%"}
{"entry-smiles": "CNC(=O)c1ccc(Nc2nc(OC3CCCC3)c3c(-c4ccc5nc(C)oc5c4)c[nH]c3n2)c(OC)c1", "experimental-result": "63%"}
{"entry-smiles": "CCCS(=O)(=O)c1nc(NC2CC2)cc(-c2ccc3c(ccn3C3CC(C)(C)NC(C)(C)C3)c2)n1", "experimental-result": "5%"}

Continue with the next compound.
Enquiry: Entry O=C1NC(=O)C(c2cnc3ccccn23)=C1c1cn2c3c(cc(F)cc13)CN(C(=O)N1CCCCC1)CC2 has what Population Membrane Permeable-Phenotype (%)?
Return: 6%

###

# Tested on: U2OS
# test-details: Multiplex assay against U2OS
# Assay type: toxicity, cell-based
# run-parameters: human, 48 h, 1 µM, compound concentration 1 uM, replicate 2
In plain terms, low Population Tubulin-Different-Phenotype (%), meaning strictly below 20%, gives criterion met, and everything else gives criterion not met.

# count of solved cases: 5
{"molecule": "CN(C)C(=O)C(CCN1CCC(O)(c2ccc(Cl)cc2)CC1)(c1ccccc1)c1ccccc1.Cl [LOPERAMIDE HYDROCHLORIDE]", "assigned-class": "criterion not met"}
{"molecule": "CCc1cccc(CC)c1NC(=O)c1nn(C)c2c1CCc1cnc(Nc3ccc(C(=O)NC4CCN(C)CC4)cc3OC(F)(F)F)nc1-2", "assigned-class": "criterion not met"}
{"molecule": "CCOc1cc(C(=O)N2CCC(N3CCN(C)CC3)CC2)ccc1Nc1ncc2c(n1)N(C1CCCC1)c1ccccc1C(=O)N2C", "assigned-class": "criterion not met"}
{"molecule": "O=C(Nc1ccc(-c2ccnc(Nc3ccc(N4CCOCC4)cc3)n2)cc1)[C@@H]1CCCN1", "assigned-class": "criterion met"}
{"molecule": "CCOC(=O)c1c(C)[nH]c2ccc3c(c12)CN1CCc2cc(OC)ccc2C1O3 (stereo not drawn)", "assigned-class": "criterion met"}

Enquiry: Please let me know if O=C(Nc1ccc(Cl)cc1)Nc1cccc(-c2cccc(N3CCCC3)n2)c1 shows Population Tubulin-Different-Phenotype (%) below 20%.
Return: criterion met

Enquiry: Would you kindly verify if Population Tubulin-Different-Phenotype (%) of S=C(NCCCc1c[nH]cn1)NCCCN(Cc1ccc(Cl)c(Cl)c1)c1ccc(Br)cn1 is strictly less than 20%?
Return: criterion met

Enquiry: Threshold test, Population Tubulin-Different-Phenotype (%) < 20%: Cl.Oc1ccc2c3c1O[C@H]1c4[nH]c5c(c4C[C@@]4(O)[C@@H](C2)N(CC2CC2)CC[C@]314)C[C@@]1(O)[C@H]2Cc3ccc(O)c4c3[C@@]1(CCN2CC1CC1)[C@H]5O4
Return: criterion met

###

# Test system: Fibroblast
# test-details: Multiplex assay against human fibroblast
# Format: toxicity, cell-based
# run-parameters: 24 h, 1 µM, compound concentration 1 uM, replicate 1
measurement-label: Total Cell Count
Respond using a number only.

Enquiry: Which Total Cell Count reading was recorded for the compound CNc1cc(Oc2cc(C(=O)Nc3cc(N4CCN(C)CC4)cc(C(F)(F)F)c3)ccc2C)ncn1 ?
Return: 163

Enquiry: Give the measured Total Cell Count of C=C1/C(=C\C=C2/CCC[C@]3(C)[C@@H]([C@H](C)/C=C/[C@H](C)C(C)C)CC[C@@H]23)C[C@@H](O)C[C@@H]1O .
Return: 112
